Origin of measurements: patent US9127044B2

tgt: Human neutrophil elastase (Homo sapiens)
Construct: purchased Elastin Products Company, Inc. (EPC, Owensville, USA) SE563
experiment.description: HNE inhibitory activity in vitro (fluorescence-quenched substrate)
Assay type: biochemical
Description: Human neutrophil elastase (cat. no. SE563) is purchased from Elastin Products Company, Inc. (EPC, Owensville, USA). […] The fluorescence-quenched substrate (DABCYL-Ser-Glu-Val^Asn-Leu-Asp-Ala-Glu-Phe-EDANS, where ^ indicates the scissile bond, identified by MS analysis) was purchased from Bachem AG (Bubendorf, Switzerland), and kept as a 5 mM stock solution in DMSO at −20° C. […] For fluorescence intensity (FI) measurements an Ultra Evolution reader (TECAN, Maennedorf, Switzerland) is used. […]
Where a SMILES comes first, the peptide text is derived from it. Bridges are numbered along the chain shown (N, C = ends). [ ]: non-standard residue; d: D form. The star is where a group is joined. ξ: configuration not given here. NMeY = CN[C@@H](Cc1ccc(O)cc1)C(=O)O; Butanoyl(2ξ-Me) = CCC(C)C(=O)*; Ile(3ξ) = CCC(C)[C@H](N)C(=O)O
measurement.label: log10 of IC50 (log10 of the value in nM)
Form field - Quantity: IC50; Unit: nM; Scale: log10

Q: Value lookup for log10 of IC50; key = CCC(C)C(=O)N[C@@H](CCC(N)=O)C(=O)N[C@@H]1C(=O)N[C@@H](CC(C)C)C(=O)N2CCC[C@H]2C(=O)N[C@@H](C(C)CC)C(=O)N(C)[C@@H](Cc2ccc(O)cc2)C(=O)N[C@@H](C(C)CC)C(=O)O[C@@H]1C (some centres unmarked) [formula XIV] ({Butanoyl(2ξ-Me)}-QTLP[Ile(3ξ)][NMeY][Ile(3ξ)]; ester 2-C)
Ans: 3.43

Q: Need log10 of IC50, item CCC(C)C1NC(=O)C(Cc2ccc(O)cc2)N(C)C(=O)C(C(C)CC)N2C(=O)C(CCC2OCC(F)(F)F)NC(=O)C(CC(C)C)NC(=O)C(NC(=O)C(CCC(N)=O)NC(=O)C(C)C)C(C)OC1=O (centres unmarked)
Ans: 0.78

Q: Quick check: log10 of IC50 of CCC(C)C1NC(=O)C(Cc2ccc(O)cc2)N(C)C(=O)C(C(C)CC)N2C(=O)C(CCC2OCCOC)NC(=O)C(CC(C)C)NC(=O)C(NC(=O)C(CCC(N)=O)NC(=O)C(C)C)C(C)OC1=O (centres unmarked) ?
Ans: 0.60

Q: I have this molecule here, CCC(C)[C@@H]1NC(=O)[C@H](Cc2ccc(O)cc2)N(C)C(=O)[C@H](Cc2ccccc2)N2C(=O)C(CC[C@@H]2O)NC(=O)[C@H](CC(C)C)NC(=O)[C@@H](NC(=O)[C@H](CCCNC(N)=O)NC(=O)C(C)C)[C@@H](C)OC1=O (some centres unmarked) , and I need its recorded log10 of IC50.
Ans: 1.90

Q: Using the record for CCC(C)C(=O)N[C@@H](CCC(N)=O)C(=O)N[C@@H]1C(=O)N[C@@H](CC(C)C)C(=O)N[C@H]2CC=CN(C2=O)[C@H](C(C)CC)C(=O)N(C)[C@@H](Cc2ccc(O)cc2)C(=O)N[C@@H](C(C)CC)C(=O)O[C@@H]1C (some centres unmarked) , report its log10 of IC50.
Ans: 1.85

====

tgt: human kallikrein 7 (Homo sapiens)
experiment.description: Kallikrein-7 inhibitory activity in vitro (fluorescence-quenched substrate)
Type: biochemical
run.conditions: Table 11; read-out: hKallikrein7 IC 50
So I've got a bunch of compounds here, and I need their pIC50 values.
Please report pIC50 as the negative decimal logarithm of the molar concentration, giving only the number.

Q: I am curious: what pIC50 value has been reported for CCCOC1CCC2NC(=O)C(CC(C)C)NC(=O)C(NC(=O)C(CCC(N)=O)NC(=O)C(C)C)C(C)OC(=O)C(C(C)CC)NC(=O)C(Cc3ccc(OCc4ccccc4)cc3)N(C)C(=O)C(C(C)CC)N1C2=O (stereo not shown) [example 39] ?
Ans: 8.07

Q: Any idea what its pIC50 is? The compound is C=CCOc1ccc(CC2C(=O)NC(C(C)CC)C(=O)OC(C)C(NC(=O)C(CCC(N)=O)NC(=O)C(C)C)C(=O)NC(CC(C)C)C(=O)NC3CCC(OCCC)N(C3=O)C(C(C)CC)C(=O)N2C)cc1 (stereo not shown) [example 40]
Ans: 8.19

Q: So what does the record say about pIC50 for CCCOC1CCC2NC(=O)C(CC(C)C)NC(=O)C(NC(=O)C(CCC(N)=O)NC(=O)C(C)C)C(C)OC(=O)C(C(C)CC)NC(=O)C(Cc3ccc(OCc4cn(CCOCCOCCN=[N+]=[N-])nn4)cc3)N(C)C(=O)C(C(C)CC)N1C2=O (stereo not shown) [example 45] ?
Ans: 8.70

Q: Would you mind telling me what pIC50 value was observed for CCCOC1CCC2NC(=O)C(CC(C)C)NC(=O)C(NC(=O)C(CCC(N)=O)NC(=O)C(C)C)C(C)OC(=O)C(C(C)CC)NC(=O)C(Cc3ccc(OCC=Cc4ccccc4)cc3)N(C)C(=O)C(C(C)CC)N1C2=O (stereo not shown) [example 32] ?
Ans: 7.00

====

tgt: Human neutrophil elastase (Homo sapiens, UniProt P08246)
Construct: purchased Elastin Products Company, Inc. (EPC, Owensville, USA) SE563
Sequence (P08246 30-267): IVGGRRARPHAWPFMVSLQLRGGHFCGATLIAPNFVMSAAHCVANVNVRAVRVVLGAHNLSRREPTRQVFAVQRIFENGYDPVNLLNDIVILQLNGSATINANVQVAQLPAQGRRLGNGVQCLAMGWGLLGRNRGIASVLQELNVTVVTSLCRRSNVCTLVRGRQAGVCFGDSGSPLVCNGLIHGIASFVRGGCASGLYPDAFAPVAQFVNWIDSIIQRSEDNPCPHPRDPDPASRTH
experiment.description: HNE inhibitory activity in vitro (fluorescence-quenched substrate)
Format: biochemical
measurement.label: pIC50
Note on pIC50: it is the negative log10 of concentration, concentration in mol/L.

Q: So what does the record say about pIC50 for CCC(C)[C@@H]1NC(=O)[C@H](Cc2ccc(O)cc2)N(C)C(=O)[C@H](C(C)CC)N2C(=O)C(CC[C@@H]2O)NC(=O)[C@H](CC(C)C)NC(=O)[C@@H](NC(=O)[C@H](CCC(N)=O)NC(C)=O)[C@@H](C)OC1=O (some centres unmarked) [formula XII] ?
Ans: 7.30

Q: Looking for the measured pIC50 of CCC(C)[C@@H]1NC(=O)[C@H](Cc2ccc(OC(=O)OCC(C)C)cc2)N(C)C(=O)[C@H](C(C)CC)N2CCCC(NC(=O)[C@H](CC(C)C)NC(=O)[C@@H](NC(=O)[C@H](CCC(N)=O)NC(=O)C(C)C)[C@@H](C)OC1=O)C2=O (some centres unmarked) [example 27] , can you help?
Ans: 7.70

====

I'd appreciate it if you could supply IC50 values for the items below.
tgt: human kallikrein 7 (Homo sapiens, UniProt P49862)
Sequence (P49862 30-253): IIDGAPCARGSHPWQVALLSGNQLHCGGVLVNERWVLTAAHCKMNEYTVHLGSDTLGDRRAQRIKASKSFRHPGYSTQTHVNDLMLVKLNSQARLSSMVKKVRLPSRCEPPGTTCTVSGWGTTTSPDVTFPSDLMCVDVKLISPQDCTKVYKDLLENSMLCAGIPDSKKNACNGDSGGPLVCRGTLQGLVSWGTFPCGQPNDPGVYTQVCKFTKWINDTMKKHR
experiment.description: Kallikrein-7 inhibitory activity in vitro (fluorescence-quenched substrate)
Format: biochemical
run.conditions: Table 11; read-out: hKallikrein7 IC 50
Where a SMILES comes first, the peptide text is derived from it. Bridges are numbered along the chain shown (N, C = ends). [ ]: non-standard residue; d: D form. The star is where a group is joined. Isovaleryl = CC(C)CC(=O)*

Q: Could you share which IC50 value was measured for CCCOC1CCC2NC(=O)C(CC(C)C)NC(=O)C(NC(=O)C(CCC(N)=O)NC(=O)C(C)C)C(C)OC(=O)C(C(C)CC)NC(=O)C(Cc3ccc(OCc4cc(C)n(C)n4)cc3)N(C)C(=O)C(C(C)CC)N1C2=O (stereo not drawn) ?
Ans: 1 nM

Q: What measured IC50 goes with CCC(C)[C@@H]1NC(=O)[C@H](Cc2ccc(OCC(=O)NCCOCCOCC(=O)OC(C)(C)C)cc2)N(C)C(=O)[C@H](C(C)CC)N2CCCC(NC(=O)[C@H](CC(C)C)NC(=O)[C@@H](NC(=O)[C@H](CCC(N)=O)NC(=O)C(C)C)[C@@H](C)OC1=O)C2=O (stereo partly drawn) ?
Ans: 3.5 nM

Q: GET /values?readout=IC50&item= CCC(C)C1NC(=O)C(Cc2ccc(OCc3cc(C)n(C)n3)cc2)N(C)C(=O)C(C(C)CC)N2C(=O)C(CCC2O)NC(=O)C(CC(C)C)NC(=O)C(NC(=O)C(CCC(N)=O)NC(=O)C(C)C)C(C)OC1=O (stereo not drawn)
Ans: 0.2 nM

Q: Entry CCCOC1CCC2NC(=O)C(CC(C)C)NC(=O)C(NC(=O)C(CCC(N)=O)NC(=O)C(C)C)C(C)OC(=O)C(C(C)CC)NC(=O)C(Cc3ccc(OCC=C(C)C)cc3)N(C)C(=O)C(C(C)CC)N1C2=O (stereo not drawn) has what IC50?
Ans: 4 nM

Q: Can you share its IC50? I mean this compound: CCC(C)C1NC(=O)C(Cc2ccc(O)cc2)N(C)C(=O)C(C(C)CC)N2C(=O)C(CCC2O)NC(=O)C(CC(C)C)NC(=O)C(NC(=O)C(CCC#N)NC(=O)C(C)C)C(C)OC1=O (stereo not drawn)
Ans: 2.5 nM

Q: Can you share its IC50? I mean this compound: CCCCCCCCOC(=O)Oc1ccc(C[C@H]2C(=O)N[C@@H](C(C)CC)C(=O)O[C@H](C)[C@H](NC(=O)[C@H](CCC(N)=O)NC(=O)C(C)C)C(=O)N[C@@H](CC(C)C)C(=O)NC3CCCN(C3=O)[C@@H](C(C)CC)C(=O)N2C)cc1 (stereo partly drawn)
Ans: 200 nM

Q: Quick one: IC50 for CCC(C)[C@@H]1NC(=O)[C@H](Cc2ccc(OCC(=O)OC(C)(C)C)cc2)N(C)C(=O)[C@H](C(C)CC)N2CCCC(NC(=O)[C@H](CC(C)C)NC(=O)[C@@H](NC(=O)[C@H](CCC(N)=O)NC(=O)C(C)C)[C@@H](C)OC1=O)C2=O (stereo partly drawn) ?
Ans: 4.5 nM

Q: Any idea what IC50 was measured for CCCCCCOC(=O)Oc1ccc(CC2C(=O)NC(C(C)CC)C(=O)OC(C)C(NC(=O)C(CCC(N)=O)NC(=O)C(C)C)C(=O)NC(CC(C)C)C(=O)NC3CCC(O)N(C3=O)C(C(C)CC)C(=O)N2C)cc1 (stereo not drawn) ?
Ans: 0.85 nM

Q: State the recorded IC50 for this entry: CC(C)CC(=O)N[C@@H](CCC(N)=O)C(=O)N[C@@H]1C(=O)N[C@@H](CC(C)C)C(=O)N2CCC[C@@H]2C(=O)N[C@@H](Cc2ccccc2)C(=O)N[C@@H](Cc2ccc(O)cc2)C(=O)N[C@@H](C(C)C)C(=O)O[C@@H]1C [formula X] (Isovaleryl-QTL[dP]FYV; ester 2-C)
Ans: 20 nM
